Provide the reported Tm of each item.
- Assay protocol: melting temperature; fluorescence melt of hairpins on a sequencing array, two-state fit, raised by 9.35 °C to match UV melts
- Condition parameters: sodium 0.088 M

**Query** Indicate the recorded Tm value for this sequence: GGTCACCGAAAGGTCACC (((.(((....))).)))
**Result** 43.9 °C

**Query** Hello, please tell me recorded Tm for this one: GCGTATAACGC ((((...))))
**Result** 56.4 °C

**Query** Could you please provide reported Tm for GGATATGGAAACACATCC ((((.((....)).)))) ? Thanks!
**Result** 31.5 °C

**Query** Tell me Tm reported for GGGTCCGGAAACGGACTC (.(((((....))))).)
**Result** 61.3 °C

**Query** Specify reported Tm for the sequence shown: GATCGGAGGACCGATC ((((((....))))))
**Result** 53.3 °C

**Query** Please look at this sequence and report its Tm: GGAGTGGGAAACCATTCC (((.(((....))).)))
**Result** 46 °C

**Query** Return value of Tm for input GTGGCCGAAAGGCTGCAC ((((((....)))..))) , no commentary.
**Result** 46.7 °C

**Query** Please report the measured Tm for GTGCCTGGAAACGGGTAC ((.((.(....).)).))
**Result** 44 °C

**Query** State its Tm for this sequence: GACAGAGGAAACTCTGTC (((((((....)))))))
**Result** 60.6 °C

**Query** Give the value of Tm reported for the following: GCGAGGGGAAACCCCCGC (((.(((....))).)))
**Result** 59.6 °C

**Query** # return recorded Tm for entry GATCGTCAATACGATC ((((((....))))))
**Result** 54.6 °C

**Query** Complete the entry with Tm for GGAAATACGAAAGTATCC (((..(((....))))))
**Result** 30.8 °C

**Query** Determine from records and report Tm for GATCATAACGATGATC ((((((....))))))
**Result** 45.9 °C

**Query** Read off the recorded Tm for GAGGGCGAAAGCCGCTC ((((((....))).)))
**Result** 54.5 °C

**Query** Quick one: give measured Tm for GCTTGTCCGAAAGGAAGC (((..(((....))))))
**Result** 36.1 °C

**Query** Return Tm for the following sequence: GGGGACGAAAGTCGTCCC ((((((....)))..)))
**Result** 61.3 °C

**Query** Recall and state the measured Tm for GTACATCCGAAAGGATAC (((..(((....)))))) .
**Result** 29.6 °C

**Query** Kindly indicate its recorded Tm. Item: GGCGTGGGAAACTACGCC (((((.(....).)))))
**Result** 61.2 °C

**Query** Provide Tm value for the following sequence: GCAAAGCGAAAGCTTGC (((.(((....))))))
**Result** 64.5 °C

**Query** Give the reported Tm for this sequence. GGTAAAGGAAACCTTACC (((((.(....).)))))
**Result** 35.5 °C

**Query** Please supply the value of reported Tm for the item GTCTGCGAAAGCACGGAC ((((((....)))..)))
**Result** 38.9 °C

**Query** Supply measured Tm of GATCGGAAAACCGATC ((((((....)))))) in your reply.
**Result** 51.2 °C

**Query** Indicate the recorded Tm value for this sequence: GTAGATCGAAAGATGTAC (((.(((....))).)))
**Result** 42.6 °C

**Query** Please report Tm for the following sequence: GTCGACCGAAAGGTGGAC (((.(((....))).)))
**Result** 56.1 °C

**Query** Identify Tm associated with the sequence GTCTCCGGAAACGAAGAC ((((.((....)).))))
**Result** 41.9 °C
